Data provenance: patent US10988465B2

Each record here notes measured clearance.
assay: Rat brain uptake assay: pharmacokinetics and brain penetration after IV-PO administration; type: in vivo, male SD rats; details: male, SD, plasma; Rat (3 mg/kg IV; 10 mg/kg, PO)
Numbers only here, please. The scale is mL/min/kg.

MOLECULE: Cc1cccnc1[C@@H]1CCC[C@H](c2nc3cccc(N4CCN(C)CC4)c3[nH]2)N1C (racemic)
OBS_VALUE: 123

Moving on to the next molecule.
Input: # lookup: clearance of CN1CCN(c2cccc3nc([C@H]4CCC[C@@H](c5ncccc5Cl)N4)[nH]c23)CC1 (racemic)
Output: 31.7

###

Assay: in vitro
Conditions: human, Caco-2, pH 7.4
Protocol: Example 37: Caco-2 Permeability Assay The goal of this assay was to evaluate the intestinal absorption potential of drug candidates using Caco-2 cell lines. HBSS buffer with 0.3% DMSO and 5 μM LY: add 150 μL DMSO and 50 μL LY (5 mM) into 50 ml HBSS buffer (pH 7.4). HBSS buffer with 0.1% DMSO and 5 μM LY: add 50 μL DMSO and 50 μL LY (5 mM) into 50 mL HBSS buffer (pH 7.4). […] 1. Papp values were calculated based on calculated concentrations. […]
Each record here notes measured Papp A→B at 90 min, 10 μM.

COMPOUND: Cc1cccnc1[C@@H]1CCC[C@H](c2nc3cccc(C4CCNCC4)c3[nH]2)N1C
Papp A→B at 90 min, 10 μM: 0.1 to 10 ×10⁻⁶ cm/s
--
COMPOUND: Cc1cccnc1[C@@H]1CCC[C@H](c2nc3cccc(N4CCNC(C)C4)c3[nH]2)N1C (some centres unmarked)
Papp A→B at 90 min, 10 μM: 0.1 to 10 ×10⁻⁶ cm/s
--
COMPOUND: CCN1CCN(c2cccc3nc([C@H]4CCC[C@@H](c5ncccc5C)N4C)[nH]c23)CC1
Papp A→B at 90 min, 10 μM: 10 to 30 ×10⁻⁶ cm/s
--
COMPOUND: Cc1cccnc1[C@@H]1CCC[C@H](c2nc3ccccc3n2CCCCN2CCC(F)(F)CC2)N1C
Papp A→B at 90 min, 10 μM: 0.1 to 10 ×10⁻⁶ cm/s
--
COMPOUND: Cc1c(Cl)ccnc1[C@@H]1CCC[C@H](c2nc3cccc(N4CCN(C)CC4)c3[nH]2)N1
Papp A→B at 90 min, 10 μM: 0.1 to 10 ×10⁻⁶ cm/s

Input: # lookup: Papp A→B at 90 min, 10 μM of "Cc1cccnc1[C@@H]1CCC[C@H](c2nc3c(N4CCN(C)CC4)cccc3n2C)N1C"
Output: 10 to 30 ×10⁻⁶ cm/s

Input: Next up: "CN1CCN(c2cccc3nc([C@H]4CCC[C@@H](c5nccc6ccccc56)N4C)[nH]c23)CC1"
Output: 0.1 to 10 ×10⁻⁶ cm/s

Input: Next up: "Cc1cccnc1[C@@H]1CCC[C@H](c2nccn2CCCN(C)C)N1C"
Output: 0.1 to 10 ×10⁻⁶ cm/s
